Hey, just so you know, these numbers are from the supplement of paper PMC10567573.

B1: FEM1B (parent)
chain: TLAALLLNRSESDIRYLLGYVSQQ

- Variants of: B1
- MEASUREMENT NOTES: protein stability index of a GFP-peptide fusion (GPS, HEK-293T) (PSI 1-6); higher = more stable;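 note: lentivirally expressed fusions sorted by FACS into six bins by GFP to DsRed ratio, PSI derived from sequencing read proportions per bin multiplied by bin number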
- EXPERIMENTAL CONDITIONS: c terminus: a fixed tail appended
PROPERTY NAME: protein stability index

I'm hoping you can list protein stability index for every variant here, please.
1. T1Q
2. V21W
3. A3F

1: 1.85; 2: 3.68; 3: 3.58

# per-item lookup of protein stability index; items listed below
1. Q23V
2. V21F
3. A4T
4. E11A
5. L5N
6. L17K
7. V21M
8. L2F

1. 2.77
2. 2.23
3. 2.35
4. 2.44
5. 1.76
6. 1.1
7. 2.17
8. 2.56
